Experiment: Viscosity (Viscolab 3000 viscometer)
Format: physicochemical
Settings: Table 5
Description: Viscosity was measured on 1 mL samples with a Viscolab 3000 viscometer (Cambridge Viscosity, Medford, MA). […] Low-temperature differential scanning calorimetry (DSC) was performed on a DSC882e instrument (Mettler-Toledo Inc., Columbus, Ohio) under N2 atmosphere over two complete scans of a temperature range of −60 to 120° C. with a ramp rate of 10° C. per minute and a sample size of 18-21 mg in an aluminum crucible.
measurement.name: viscosity

For CC(C)=CCC/C(C)=C/C(=O)[O-].CCCCCCCCCCCCCC[P+](CCCCCC)(CCCCCC)CCCCCC [LANL-22, [PC14H29(C6H13)3][geranate]] , what is its reported viscosity? 122.3 cP

Field entry: CCCCCCn1cc[n+](C)c1.[Cl-] [LANL-7, 1-Hexyl-3-Methylimidazolium Chloride] 679.5 cP

Field entry: CCCC[N+]1(C)CCCC1.O=S(=O)([N-]S(=O)(=O)C(F)(F)F)C(F)(F)F [LANL-1] 72.72 cP

Field entry: C[N+](C)(C)CCO.O=S(=O)([N-]S(=O)(=O)C(F)(F)F)C(F)(F)F [LANL-12, choline-NTf2] 125 cP

###

So I've got a bunch of molecules here, and I need their percent in octanol values.
experiment: Determination of lipophilicity (octanol/water distribution by UV absorbance); assay type: physicochemical; settings: after extraction with water, Table 3

For C[N+](C)(C)CCO.NC(N)=O.NC(N)=O.[Cl-] , what is its reported percent in octanol? 24 +/− 8%

Field entry: CCCCCCn1cc[n+](C)c1.[Cl-] [LANL-7, 1-Hexyl-3-Methylimidazolium Chloride] 52 +/− 9%

Field entry: CCCCCCCC/C=C\CCCCCCCC(=O)[O-].CCCCCCCCCCCCCC[P+](CCCCCC)(CCCCCC)CCCCCC [LANL-19, [PC14H29(C6H13)3][oleate]] 93 +/− 2%

Field entry: CC(C)=CCC/C(C)=C/C(=O)[O-].CCCCCCCCCCCCCC[P+](CCCCCC)(CCCCCC)CCCCCC [LANL-22, [PC14H29(C6H13)3][geranate]] 88 +/− 6%

Field entry: C[N+](C)(C)CCO.O=S(=O)([N-]S(=O)(=O)C(F)(F)F)C(F)(F)F 67 +/− 9%

Field entry: CCCCCCCC/C=C\CCCCCCCC(=O)O.CCCCCCCC/C=C\CCCCCCCC(=O)[O-].C[N+](C)(C)CCO 95 +/− 3%

Field entry: CCCC[N+]1(C)CCCC1.O=S(=O)([N-]S(=O)(=O)C(F)(F)F)C(F)(F)F 20% +/− 7%

Field entry: CCCCCC(=O)[O-].CCCCCCCCCCCCCC[P+](CCCCCC)(CCCCCC)CCCCCC [LANL-20, [PC14H29(C6H13)3][hexanoate]] 65 +/− 14%

###

experiment: Density (volumetric flask and balance); assay type: physicochemical; conditions: Table 5
Label scheme for density: lower than 1 g/mL is not fulfilled, 1 g/mL and above is fulfilled.

Entry CCCCCC(=O)[O-].CCCCCCCCCCCCCC[P+](CCCCCC)(CCCCCC)CCCCCC [LANL-20, [PC14H29(C6H13)3][hexanoate]] : is its density no less than 1 g/mL? not fulfilled

Field entry: CCCCCCCC/C=C\CCCCCCCC(=O)[O-].CCCCCCCCCCCCCC[P+](CCCCCC)(CCCCCC)CCCCCC [LANL-19, [PC14H29(C6H13)3][oleate]] not fulfilled

Field entry: C[N+](C)(C)CCO.O=S(=O)([N-]S(=O)(=O)C(F)(F)F)C(F)(F)F [LANL-12, choline-NTf2] fulfilled

Field entry: CCCC[N+]1(C)CCCC1.O=S(=O)([N-]S(=O)(=O)C(F)(F)F)C(F)(F)F [LANL-1] fulfilled

Field entry: C[N+](C)(C)CCO.NC(N)=O.NC(N)=O.[Cl-] [LANL-6, urea-choline] fulfilled

Field entry: CC(C)=CCC/C(C)=C/C(=O)[O-].CCCCCCCCCCCCCC[P+](CCCCCC)(CCCCCC)CCCCCC [LANL-22, [PC14H29(C6H13)3][geranate]] not fulfilled

###

assay: Calculations of molarity and ionic strength; type: physicochemical; conditions: neat IL, Table 5
So I've got a bunch of molecules here, and I need their molarity values.
Please respond with the number in M and leave the unit unwritten.

For CC(C)=CCC/C(C)=C/C(=O)[O-].CCCCCCCCCCCCCC[P+](CCCCCC)(CCCCCC)CCCCCC [LANL-22, [PC14H29(C6H13)3][geranate]] , what is its reported molarity? 1.43

Field entry: CCCCCCn1cc[n+](C)c1.[Cl-] [LANL-7, 1-Hexyl-3-Methylimidazolium Chloride] 4.96

Field entry: CCCC[N+]1(C)CCCC1.O=S(=O)([N-]S(=O)(=O)C(F)(F)F)C(F)(F)F 3.28

Field entry: CCCCCCCC/C=C\CCCCCCCC(=O)[O-].CCCCCCCCCCCCCC[P+](CCCCCC)(CCCCCC)CCCCCC [LANL-19, [PC14H29(C6H13)3][oleate]] 1.15

Field entry: C[N+](C)(C)CCO.NC(N)=O.NC(N)=O.[Cl-] 4.65

Field entry: C[N+](C)(C)CCO.O=S(=O)([N-]S(=O)(=O)C(F)(F)F)C(F)(F)F 4.40

Field entry: CCCCCCCC/C=C\CCCCCCCC(=O)O.CCCCCCCC/C=C\CCCCCCCC(=O)[O-].C[N+](C)(C)CCO 1.47

Field entry: CCCCCC(=O)[O-].CCCCCCCCCCCCCC[P+](CCCCCC)(CCCCCC)CCCCCC [LANL-20, [PC14H29(C6H13)3][hexanoate]] 1.63

###

assay: Solubility in water (physical characterization); settings: water, 25 °C
measurement.name: solubility (mM)
Please respond with the number in mM and leave the unit unwritten.

For CCCCCCn1cc[n+](C)c1.[Cl-] [LANL-7, 1-Hexyl-3-Methylimidazolium Chloride] , what is its reported solubility? 700

###

experiment: Density (volumetric flask and balance); type: physicochemical; details: 25° C.
measurement.name: density (g/mL)
Please respond with the number in g/mL and leave the unit unwritten.

For CCCCCCn1cc[n+](C)c1.[Cl-] [LANL-7, 1-Hexyl-3-Methylimidazolium Chloride] , what is its reported density? 1.005

Field entry: CCCC[N+]1(C)CCCC1.O=S(=O)([N-]S(=O)(=O)C(F)(F)F)C(F)(F)F 1.39

Field entry: CCCCCCCC/C=C\CCCCCCCC(=O)[O-].CCCCCCCCCCCCCC[P+](CCCCCC)(CCCCCC)CCCCCC [LANL-19, [PC14H29(C6H13)3][oleate]] 0.882

Field entry: C[N+](C)(C)CCO.NC(N)=O.NC(N)=O.[Cl-] 1.21

Field entry: CCCCCC(=O)[O-].CCCCCCCCCCCCCC[P+](CCCCCC)(CCCCCC)CCCCCC [LANL-20, [PC14H29(C6H13)3][hexanoate]] 0.912

Field entry: CC(C)=CCC/C(C)=C/C(=O)[O-].CCCCCCCCCCCCCC[P+](CCCCCC)(CCCCCC)CCCCCC [LANL-22, [PC14H29(C6H13)3][geranate]] 0.931

Field entry: CCCCCCCC/C=C\CCCCCCCC(=O)O.CCCCCCCC/C=C\CCCCCCCC(=O)[O-].C[N+](C)(C)CCO 0.98

###

experiment: Viscosity (Viscolab 3000 viscometer); type: physicochemical; details: 25° C.
Assign labels as follows, please: fulfilled for viscosity below 300 cP; not fulfilled for viscosity equal to or exceeding 300 cP.

Item C[N+](C)(C)CCO.NC(N)=O.NC(N)=O.[Cl-] : viscosity beneath 300 cP, strictly? not fulfilled

Field entry: CC(C)=CCC/C(C)=C/C(=O)[O-].CCCCCCCCCCCCCC[P+](CCCCCC)(CCCCCC)CCCCCC [LANL-22, [PC14H29(C6H13)3][geranate]] fulfilled

Field entry: C[N+](C)(C)CCO.O=S(=O)([N-]S(=O)(=O)C(F)(F)F)C(F)(F)F fulfilled

Field entry: CCCCCCCC/C=C\CCCCCCCC(=O)O.CCCCCCCC/C=C\CCCCCCCC(=O)[O-].C[N+](C)(C)CCO not fulfilled

Field entry: CCCC[N+]1(C)CCCC1.O=S(=O)([N-]S(=O)(=O)C(F)(F)F)C(F)(F)F fulfilled

Field entry: CCCCCCn1cc[n+](C)c1.[Cl-] [LANL-7, 1-Hexyl-3-Methylimidazolium Chloride] not fulfilled

Field entry: CCCCCC(=O)[O-].CCCCCCCCCCCCCC[P+](CCCCCC)(CCCCCC)CCCCCC [LANL-20, [PC14H29(C6H13)3][hexanoate]] fulfilled

###

experiment: Viscosity (Viscolab 3000 viscometer); format: physicochemical; conditions: Table 5
Marks after values point to notes of the source that are not given here.
So I've got a bunch of compounds here, and I need their viscosity values.

For CCCCCC(=O)[O-].CCCCCCCCCCCCCC[P+](CCCCCC)(CCCCCC)CCCCCC [LANL-20, [PC14H29(C6H13)3][hexanoate]] , what is its reported viscosity? 154 cP

Field entry: CCCCCCCC/C=C\CCCCCCCC(=O)[O-].CCCCCCCCCCCCCC[P+](CCCCCC)(CCCCCC)CCCCCC [LANL-19, [PC14H29(C6H13)3][oleate]] 300 cP

Field entry: C[N+](C)(C)CCO.NC(N)=O.NC(N)=O.[Cl-] [LANL-6, urea-choline] 1386^a cP

Field entry: CCCCCCCC/C=C\CCCCCCCC(=O)O.CCCCCCCC/C=C\CCCCCCCC(=O)[O-].C[N+](C)(C)CCO 162.3^b cP
